Here the recorded pIC50 is given for each entry.
Test system: 996289-038-R-J1-PDC spheroid viability
TEST DETAILS: Anticancer human tumor 996289-038-R-J1-PDC patient-derived colon adenocarcinoma cell line growth inhibition [PI3K]
TEST CONTEXT: curve of first compound; second compound 1 µM; spheroids with HUVEC and MSC
pIC50: −log10 of the molar value.

Some solved entries appear below for comparison.
MOLECULE	REPORTED VALUE
CC(C)n1nc(-c2ccc3oc(N)nc3c2)c2c(N)ncnc21 + Cc1nc(NC(=O)N2CCCC2C(N)=O)sc1-c1ccnc(C(C)(C)C(F)(F)F)c1	7.59
CC(C)NCC(C(=O)N1CCN(c2ncnc3c2C(C)CC3O)CC1)c1ccc(Cl)cc1 (stereo unspecified) + CC(Nc1ccc2c(c1)OCCn1cc(N3C(=O)OCC3C(F)F)nc1-2)C(N)=O	< 5.00
CC(=O)c1c(C)c2cnc(Nc3ccc(N4CCNCC4)cn3)nc2n(C2CCCC2)c1=O + Cc1nc(NC(=O)N2CCCC2C(N)=O)sc1-c1ccnc(C(C)(C)C(F)(F)F)c1	< 7.00
Cn1ncnc1[C@H]1c2n[nH]c(=O)c3cc(F)cc(c23)N[C@@H]1c1ccc(F)cc1 + Cc1nc(NC(=O)N2CCCC2C(N)=O)sc1-c1ccnc(C(C)(C)C(F)(F)F)c1	< 7.00
CC(Cn1ccc(-c2ccc(C#N)c(Cl)c2)n1)NC(=O)c1cc(C(C)O)[nH]n1 (stereo unspecified) + Cc1nc(NC(=O)N2CCCC2C(N)=O)sc1-c1ccnc(C(C)(C)C(F)(F)F)c1	< 5.00

Measured pIC50 of Cn1ncc(Cl)c1-c1cc(C(=O)NC(CN)Cc2cccc(F)c2)sc1Cl (stereo unspecified) + COc1c(OCCCN2CCOCC2)ccc2c3n(c(=NC(=O)c4cnc(N)nc4)nc12)CCN3 : > 7.50

* * *

System: 996289-038-R-J1-PDC spheroid viability
TEST DETAILS: Anticancer human tumor 996289-038-R-J1-PDC cell line growth inhibition [PI3K];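 also: spheroids exposed to compounds for seven days before viability read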;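 as to viability, T/C: luminescence used as a proxy for viable cell amount; percent viability relative to DMSO vehicle control as 100%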
TEST CONTEXT: second compound 0.316 µM; first compound 3.16 µM; stronger effect = lower value; spheroids with HUVEC and MSC
Here the recorded viability, T/C is given for each entry.
Kindly provide the numeric value in % only, without the unit symbol.

Some solved entries appear below for comparison.
COMPOUND	viability, T/C [%]
Cn1nccc1Nc1nccc(-c2ccn(C(CO)c3ccc(Cl)c(F)c3)c(=O)c2)n1 (stereo not given) + CC(Nc1ncnc2nc[nH]c12)c1cc2cccc(Cl)c2c(=O)n1-c1ccccc1	79.6
CC1(C)CCC(Nc2ncc(C(F)(F)F)c(-c3c[nH]c4c(P(C)(C)=O)c(C#N)ccc34)n2)CN1 (stereo not given) + Cc1nc(NC(=O)N2CCCC2C(N)=O)sc1-c1ccnc(C(C)(C)C(F)(F)F)c1	80.2
CNC(=O)c1ccc(N2C(=S)N(c3ccc(C#N)c(C(F)(F)F)c3)C(=O)C2(C)C)cc1F + CC(Nc1ncnc2nc[nH]c12)c1cc2cccc(Cl)c2c(=O)n1-c1ccccc1	119

Measured viability, T/C of CC1(C)CCC(CN2CCN(c3ccc(C(=O)NS(=O)(=O)c4ccc(NCC5CCOCC5)c([N+](=O)[O-])c4)c(Oc4cnc5[nH]ccc5c4)c3)CC2)=C(c2ccc(Cl)cc2)C1 + CC(Nc1ccc2c(c1)OCCn1cc(N3C(=O)OCC3C(F)F)nc1-2)C(N)=O : 74.6

Measured viability, T/C of C=CC(=O)N1CCN(c2nc(=O)n(-c3c(C)ccnc3C(C)C)c3nc(-c4c(O)cccc4F)c(F)cc23)C(C)C1 (stereo not given) + CC(Nc1ncnc2nc[nH]c12)c1cc2cccc(Cl)c2c(=O)n1-c1ccccc1 : 105

* * *

Test system: 996289-038-R-J1-PDC spheroid viability
TEST DETAILS: Anticancer human tumor 996289-038-R-J1-PDC cell line growth inhibition [PI3K];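 also: spheroids exposed to compounds for seven days before viability read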
TEST CONTEXT: curve of first compound; second compound 1 µM; spheroids with HUVEC and MSC
RECORDED METRIC: IC50

Some solved entries appear below for comparison.
MOLECULE	IC50
CC(C)NCC(C(=O)N1CCN(c2ncnc3c2C(C)CC3O)CC1)c1ccc(Cl)cc1 (stereo not given) + Cc1nc(NC(=O)N2CCCC2C(N)=O)sc1-c1ccnc(C(C)(C)C(F)(F)F)c1	> 10 µM
CC1(C)CCC(CN2CCN(c3ccc(C(=O)NS(=O)(=O)c4ccc(NCC5CCOCC5)c([N+](=O)[O-])c4)c(Oc4cnc5[nH]ccc5c4)c3)CC2)=C(c2ccc(Cl)cc2)C1 + CC(Nc1ccc2c(c1)OCCn1cc(N3C(=O)OCC3C(F)F)nc1-2)C(N)=O	4.21 µM
Cn1cnc2c(F)c(Nc3ccc(Br)cc3Cl)c(C(=O)NOCCO)cc21 + Cc1nc(NC(=O)N2CCCC2C(N)=O)sc1-c1ccnc(C(C)(C)C(F)(F)F)c1	0.0248 µM
CC(Cn1ccc(-c2ccc(C#N)c(Cl)c2)n1)NC(=O)c1cc(C(C)O)[nH]n1 (stereo not given) + CC(Nc1ncnc2nc[nH]c12)c1cc2cccc(Cl)c2c(=O)n1-c1ccccc1	> 10 µM

Now, please, on to the next molecule.
Measured IC50 of Cn1nccc1Nc1nccc(-c2ccn(C(CO)c3ccc(Cl)c(F)c3)c(=O)c2)n1 (stereo not given) + CC(Nc1ncnc2nc[nH]c12)c1cc2cccc(Cl)c2c(=O)n1-c1ccccc1 : 8.64 µM

* * *

System: 996289-038-R-J1-PDC spheroid viability
TEST DETAILS: Anticancer human tumor 996289-038-R-J1-PDC cell line growth inhibition [PI3K];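 also: spheroids exposed to compounds for seven days before viability read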;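 as to viability, T/C: luminescence used as a proxy for viable cell amount; percent viability relative to DMSO vehicle control as 100%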
TEST CONTEXT: second compound 0.316 µM; first compound 3.16 µM; stronger effect = lower value; spheroids with HUVEC and MSC
viability, T/C strictly less than 70% = 1.0. Otherwise 0.0.

Would you please look over these solved cases?
COMPOUND	SYSTEM NAME	CLASS LABEL
C#Cc1c(F)ccc2cc(O)cc(-c3ncc4c(N5CC6CCC(C5)N6)nc(OCC56CCCN5CC(F)C6)nc4c3F)c12 (stereo unspecified) + CC(Nc1ccc2c(c1)OCCn1cc(N3C(=O)OCC3C(F)F)nc1-2)C(N)=O	996289-038-R-J1-PDC spheroid viability	1.0
CC(C)NCC(C(=O)N1CCN(c2ncnc3c2C(C)CC3O)CC1)c1ccc(Cl)cc1 (stereo unspecified) + CC(Nc1ccc2c(c1)OCCn1cc(N3C(=O)OCC3C(F)F)nc1-2)C(N)=O	996289-038-R-J1-PDC spheroid viability	0.0
CC(Cn1ccc(-c2ccc(C#N)c(Cl)c2)n1)NC(=O)c1cc(C(C)O)[nH]n1 (stereo unspecified) + COc1c(OCCCN2CCOCC2)ccc2c3n(c(=NC(=O)c4cnc(N)nc4)nc12)CCN3	996289-038-R-J1-PDC spheroid viability	1.0

IN: Lab note: viability, T/C threshold 70%. Does this compound come in strictly under it? CC(Cn1ccc(-c2ccc(C#N)c(Cl)c2)n1)NC(=O)c1cc(C(C)O)[nH]n1 (stereo unspecified) + CC(Nc1ccc2c(c1)OCCn1cc(N3C(=O)OCC3C(F)F)nc1-2)C(N)=O
OUT: 1.0

IN: Lab note: viability, T/C threshold 70%. Does this compound come in strictly under it? CC(C)NCC(C(=O)N1CCN(c2ncnc3c2C(C)CC3O)CC1)c1ccc(Cl)cc1 (stereo unspecified) + Cc1nc(NC(=O)N2CCCC2C(N)=O)sc1-c1ccnc(C(C)(C)C(F)(F)F)c1
OUT: 0.0

IN: Lab note: viability, T/C threshold 70%. Does this compound come in strictly under it? CCCS(=O)(=O)Nc1ccc(F)c(C(=O)c2c[nH]c3ncc(-c4ccc(Cl)cc4)cc23)c1F + CC(Nc1ncnc2nc[nH]c12)c1cc2cccc(Cl)c2c(=O)n1-c1ccccc1
OUT: 0.0

IN: Lab note: viability, T/C threshold 70%. Does this compound come in strictly under it? Cn1nccc1Nc1nccc(-c2ccn(C(CO)c3ccc(Cl)c(F)c3)c(=O)c2)n1 (stereo unspecified) + CC(Nc1ccc2c(c1)OCCn1cc(N3C(=O)OCC3C(F)F)nc1-2)C(N)=O
OUT: 1.0

IN: Lab note: viability, T/C threshold 70%. Does this compound come in strictly under it? C=CC(=O)N1CCN(c2nc(=O)n(-c3c(C)ccnc3C(C)C)c3nc(-c4c(O)cccc4F)c(F)cc23)C(C)C1 (stereo unspecified) + CC(Nc1ccc2c(c1)OCCn1cc(N3C(=O)OCC3C(F)F)nc1-2)C(N)=O
OUT: 0.0

IN: Lab note: viability, T/C threshold 70%. Does this compound come in strictly under it? C#Cc1c(F)ccc2cc(O)cc(-c3ncc4c(N5CC6CCC(C5)N6)nc(OCC56CCCN5CC(F)C6)nc4c3F)c12 (stereo unspecified) + Cc1nc(NC(=O)N2CCCC2C(N)=O)sc1-c1ccnc(C(C)(C)C(F)(F)F)c1
OUT: 1.0

IN: Lab note: viability, T/C threshold 70%. Does this compound come in strictly under it? Cn1nccc1Nc1nccc(-c2ccn(C(CO)c3ccc(Cl)c(F)c3)c(=O)c2)n1 (stereo unspecified) + Cc1nc(NC(=O)N2CCCC2C(N)=O)sc1-c1ccnc(C(C)(C)C(F)(F)F)c1
OUT: 1.0

IN: Lab note: viability, T/C threshold 70%. Does this compound come in strictly under it? CNC(=O)c1ccc(N2C(=S)N(c3ccc(C#N)c(C(F)(F)F)c3)C(=O)C2(C)C)cc1F + Cc1nc(NC(=O)N2CCCC2C(N)=O)sc1-c1ccnc(C(C)(C)C(F)(F)F)c1
OUT: 0.0
